Exercise: state measured growth inhibition for each of the compounds provided.
# Test Protocol: Restrictive medium S. cerevisiae growth inhibition, OD615, pilot screen of yeast lifespan reduction project, restrictive growth control (AID 706);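 note: modified DeaD lifespan yeast strain shifted to restrictive glucose medium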
# Condition Description: OD615, 48 h, at 10 µM, stronger effect = higher value
Give bare numbers, in %.

Known growth inhibition results, listed for orientation:
CCOc1ccc(S(=O)(=O)N2CCN(S(=O)(=O)c3ccc(OCC)cc3)C(C)C2)cc1 (stereo not drawn): 1.25
COc1ccc(CN2CCNC(=O)C2CC(=O)O)c(OC)c1 (stereo not drawn): -24
CC(CCc1ccccc1)NC(=O)C1CCN(c2nnc(-n3cccc3)s2)CC1 (stereo not drawn): -7.45
O=S(=O)(NCCSc1nc2ccccc2o1)c1ccccc1: -2.81
CCNc1nc(C)nc2c1oc1ccccc12: -30.6
CCn1c(SCC(=O)Nc2nnc(C)s2)nc2c(c1=O)SC(C)C2 (stereo not drawn): -16.4

Each compound below has a recorded value; state its growth inhibition.
1. COc1cc(OC)cc(C(=O)NCCn2ccc3ccccc32)c1
2. O=C(NCCCN1CCC(Cc2ccccc2)CC1)C1CC(=O)N(C2CCCC2)C1 (stereo not drawn)
3. O=C(NCCN1CCOCC1)NC1(C(F)(F)F)Oc2ccccc2O1
4. CN(Cc1ccccc1)C(=O)c1ccc2c(c1)OCCO2

[0.31, -13.9, 4.58, -4.09]

---

Exercise: state measured growth inhibition for each of the compounds provided.
# Test Protocol: Restrictive medium S. cerevisiae growth inhibition, OD615, pilot screen of yeast lifespan reduction project, restrictive growth control (AID 706);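 note: modified DeaD lifespan yeast strain shifted to restrictive glucose medium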
# Condition Description: OD615, 48 h, at 10 µM, stronger effect = higher value
Give bare numbers, in %.

O=C(O)CCc1ccc(-c2cccs2)n1NC(=O)c1ccc(Cl)cc1: -14.6
Cc1c(C(=O)NCc2ccc3c(c2)OCO3)sc2nc(-c3ccccc3)cn12: -4.12
Cc1oc(-c2ccccc2F)nc1CS(=O)CC(=O)NCc1cccs1 (stereo unspecified): 26
CCc1nc(SCC(=O)Nc2ccc(C(=O)O)cc2)n[nH]1: 0.705
CCC(=O)c1ccc(CCCCCC(=O)O)s1: -7.41

Next item in the queue.
Given the entry O=C(CCC1CCCC1)c1c(O)c2ccccc2oc1=O , report its measured growth inhibition. 13.6

---

# Test Protocol: Restrictive medium S. cerevisiae growth inhibition, OD615, pilot screen of yeast lifespan reduction project, restrictive growth control (AID 706);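 note: modified DeaD lifespan yeast strain shifted to restrictive glucose medium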
# Condition Description: OD615, 48 h, at 10 µM, stronger effect = higher value
Exercise: state measured growth inhibition for each of the compounds provided.
Numbers only, in %.

c1ccc(Oc2nc(Oc3ccccc3)nc(N3CCOCC3)n2)cc1: -9.93
Cc1ccc(S(=O)(=O)Cc2ccc(C(=O)N3CCCC3)o2)cc1: -13.4

Each compound below has a recorded value; state its growth inhibition.
1. Cn1ccnc1SC(=O)N1c2ccccc2Sc2ccccc21
2. CN1CCN(c2ccccc2NC(=O)Cc2cn(C)c3ccccc23)CC1
3. CCN(CC)c1ccc(NC(=O)C2CC3CCC2C3)cc1 (stereo not drawn)
4. CCc1ccc(C2CC(c3ccc(C)cc3)Nc3nc(N)nn32)cc1 (stereo not drawn)
5. CCOC(=O)N1CCN(C(=O)CCSc2ccccc2)CC1
6. CCN(CCCNC(=O)Cn1ncc2c(=O)oc3ccccc3c21)c1cccc(C)c1

0.605
-4.69
-4.45
-9.54
2.15
9.37

Each compound below has a recorded value; state its growth inhibition.
1. CCOc1ccc2ccccc2c1C(=O)Nc1cc(=O)n(C)c(=O)n1C
2. Cc1onc(-c2ccccc2Cl)c1C(=O)Nc1c(C)n(C)n(-c2ccccc2)c1=O
3. COc1ccc(-c2nnc3ccc(SCC(=O)N4CCCCCC4)nn23)cc1OC
4. Clc1ccc(CCNc2ncnc3nc[nH]c23)cc1
5. COc1ccccc1C(=O)N(Cc1nc(-c2ccc(Cl)cc2)no1)C(C)C
6. CCc1cc2c(=O)c(Oc3ccccc3F)c(C)oc2c(CN(C)C)c1O
7. Cc1ccc(C)c(C(=O)COC(=O)c2ccc(Br)o2)c1
8. CC(=Nc1ccc(C)c(C)c1)C1=C(O)CSC1=O

[-21.5, 3.75, -3.42, 48.5, -20.1, 9.37, -17.1, -8.17]

Each compound below has a recorded value; state its growth inhibition.
1. O=C(CCS(=O)(=O)c1cccc2nonc12)N1CCCc2ccccc21
2. Fc1cccc(CSc2nc3ccncc3[nH]2)c1
3. Brc1ccc(-c2nnc3sc(CNCc4ccc5c(c4)OCO5)cn23)cc1
4. CCOC(=O)CN1C(=O)C(O)(CC(=O)c2ccccn2)c2ccccc21 (stereo not drawn)

[-22.1, -9.72, 20.8, 3.35]

---

Exercise: state measured RAM network inhibition for each of the compounds provided.
# Test Protocol: RAM signaling pathway blockade in yeast – S. cerevisiae, Pdr1DBD-CYC8 efflux-inhibited sensitized strain, primary screen (AID 1298);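 note: 0% = DMSO untreated cells without growth and 100% = 10 µM 1-NA-PP1 full growth; higher means more yeast growth rescued from 5-FOA killing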
# Condition Description: S. cerevisiae cbk1-as DSE1-URA3 strain, 5-FOA growth OD615, 2 d; at 50 µM; stronger effect = higher value
Answers are plain numbers, in %.

CCCC(=O)Nc1nnc(-c2ccc(Cl)s2)o1: 1.6
COc1cccc(N(CC(=O)Nc2cccc(F)c2)S(C)(=O)=O)c1: 3.51
Cc1csc2nc(CNC(=O)CCC(=O)O)cn12: 2.71
COc1ccc(OCC(O)CN2CCCCC2)cc1 (stereo unspecified): 0.52
COc1ccccc1C1C(C(N)=O)=C(C)Nc2nc(-c3ccc(Cl)cc3)nn21 (stereo unspecified): -1.72
CCOc1ccc(-n2c(SCC(=O)NCc3ccco3)nc3c([nH]c4ccccc43)c2=O)cc1: 7.07
O=C(NCCc1ccccc1)c1ccncc1: 0.86
CCCOC(=O)c1ccc(-n2nnnc2SCC(=O)N2CCCCC2)cc1: 0.04

Each compound below has a recorded value; state its RAM network inhibition.
1. Cc1nn(Cc2ccccc2)c(N)c1-c1ccccc1
2. CCn1nc(C(=O)OCC(=O)c2ccc3c(c2)OCCO3)c2ccccc2c1=O
3. O=C(CSc1cn(CCNC(=O)c2ccccc2)c2ccccc12)NCc1ccco1

[2.53, 3.16, 5.98]

---

Exercise: state measured viability for each of the molecules provided.
# Test Protocol: growth suppression of beta-catenin knockout HCT116, pilot screen, human colon tumor cells (AID 823);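 note: 0% = wells killed by 20 µM Hyamine and 100% = untreated DMSO cell wells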
# Condition Description: CellTiter-Glo, 60 h, at 10 µM, stronger effect = lower value
Inconclusive results are not listed. Activity calls are given as the source filed them.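 The calls were made as follows: active = cell viability at or below a set limit in both duplicate runs, the limit being the all-compound median minus 4 SD (cut at about 23% in these data, passing the limit was not always enough); inconclusive = no clear call, values can overlap the other calls; inactive = the rest.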

Known viability results, listed for orientation:
O=C(CN(C1CCCCC1)S(=O)(=O)c1ccc(Cl)cc1)NCc1ccncc1: 79.8% (inactive)
CCOc1ccccc1NC(=O)CCS(=O)(=O)c1cccc2nonc12: 103% (inactive)
COCCNC(=O)CN(c1ccccc1OC)S(C)(=O)=O: 101% (inactive)
COc1cc2c(cc1OC)C(c1ccco1)CC(=O)N2 (stereo unspecified): 101% (inactive)
CC(=O)c1ccc(OCC(O)Cn2nnc3ccccc32)cc1 (stereo unspecified): 87.6% (inactive)

Next item in the queue.
Given the entry COc1cccc(C2CC(c3ccccc3)Nc3nc(N)nn32)c1 (stereo unspecified) , report its measured viability. 94.9% (inactive)

---

# Test Protocol: viability gain of MRP-1-high H69AR cells under doxorubicin, pilot screen, MRP-1 activator project, CellTiter-Glo, duplicate (AID 807);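 note: compound pretreatment 18-22 h then 72 h combined with doxorubicin; 0% = doxorubicin alone and 100% = vehicle without doxorubicin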
# Condition Description: H69AR viability with doxorubicin, CellTiter-Glo luminescence; at 10 µM; stronger effect = higher value
Reported Metric: viability increase (%)
Give bare numbers, in %.

Known viability increase results, listed for orientation:
O=C(O)c1ccccc1C(=O)NCC(O)COCC1CC=CCC1 (stereo not drawn): -1.89
CC(=NCc1ccccc1)C1=C(O)COC1=O: -1.47

Each molecule below has a recorded value; state its viability increase.
1. O=C(C1CCC(=O)N1Cc1cccnc1)N1CCN(c2ccc(F)cc2)CC1 (stereo not drawn)
2. Cc1cccc(NC(=O)CN(C)S(=O)(=O)c2cccc3cccnc23)c1
3. CCN(CC)S(=O)(=O)c1ccc(C(=O)Nc2nnc(C(C)C)s2)cc1

-2.73
1.15
0.3

Each molecule below has a recorded value; state its viability increase.
1. COc1ccc(C2CC(=O)N3CN(c4ccccc4F)CSC3=C2C#N)cc1OC (stereo not drawn)
2. C=CCSc1nc2c(c(=O)[nH]1)C(C(C)C)C(C#N)=C(N)O2 (stereo not drawn)
3. C=C1c2cc(CC)ccc2NC(=O)N1c1ccc(C)cc1
4. CCC1CCCCN1C(=O)CSc1nc2c(cnn2-c2ccc(C)cc2)c(=O)[nH]1 (stereo not drawn)
5. CCOC(=O)C1CCN(c2cc(=O)n(Cc3ccc(F)cc3)c(=O)[nH]2)CC1
6. COc1ccc(N2C(=O)CCC(C(=O)Nc3ccccn3)C2c2ccc(OC)c(OC)c2)cc1 (stereo not drawn)
7. O=C(C1CCC(Cn2c(=O)[nH]c3ccccc3c2=O)CC1)N1CCN(c2ccccc2)CC1 (stereo not drawn)
8. COc1ccc(C2NC(=O)c3n[nH]c(C)c32)c(OC)c1 (stereo not drawn)

[-1.47, -2.3, 3.36, -3.73, -0.81, -0.12, 2.93, -0.95]

Each molecule below has a recorded value; state its viability increase.
1. CCCNC(=O)Nc1cc(OCC)c(N2CCOCC2)cc1OCC
2. Cc1cc(=O)oc2c(N)c(O)ccc12
3. C=CCOC(=O)C1=C(C)NC(=O)NC1c1ccc(OC(=O)c2ccco2)c(OC)c1 (stereo not drawn)
4. Cc1ccc(-c2ccc(CCC(=O)O)n2C(C)C)cc1
5. CCOc1cccc(=O)c2c(C)n(CC3CCCO3)c(C)c12 (stereo not drawn)

[-1.37, -4.95, -0.16, -1.75, -2.8]
